Tested on: Zika virus NS2B-NS3 protease (linked construct)
Test: Confirmatory screen NINDS AMC qHTS for Zika virus inhibitors (AID 1347152); further: nearly all actives have a fitted effect of over 70% in size
Settings: Purified linked NS2B-NS3, AMC substrate fluorescence; series mostly up to 110 µM
Results filed as inconclusive are left out. Activity calls are given as the source filed them. The call rests on the fitted dose curve; in most records, active means well fitted inhibition curve with a large enough effect; inconclusive means small, poorly fitted or top-dose-only effect; inactive means flat fitted curve, though single readings scatter.
Your response should consist of one outcome taken from active, inactive

Please share the test call associated with CCOc1nc2cccc(C(=O)OC(C)OC(=O)OC3CCCCC3)c2n1Cc1ccc(-c2ccccc2-c2nn[nH]n2)cc1 (configuration not stated) .
active

Dear all, I need the recorded test outcome for O=C(O)c1ccc(-c2cccc(C(F)(F)F)c2)cc1 , thank you.
inactive

In this assay, the call recorded for CCN(CC)c1ccc(/C=N/NC(=O)c2ccc(O)cc2)cc1 was what?
inactive

I would be grateful if you could indicate the recorded call for CCOC(=O)O[C@H](C)OC(=O)C1N2C(=O)[C@H](NC(=O)[C@H](N)c3ccccc3)C2SC1(C)C (some centres not stated) .
inactive

Assay outcome for CCCCc1nn(-c2ccccc2C(F)(F)F)c(=O)n1Cc1ccc(-c2ccccc2S(=O)(=O)NC(=O)c2sccc2C)cc1 : what was it?
active

For N#Cc1ccccc1S(=O)(=O)N[C@H]1CO[C@H]2[C@@H]1OC[C@H]2OC(=O)Nc1ccc(Oc2ccccc2)cc1 , what call appears in the results of this test?
inactive

Kindly provide the recorded test outcome for the following compound: O=C(O)c1ccc(-c2ccc(OC(F)(F)F)cc2)cc1
inactive

###

Tested on: HeLa
Assay: Primary qHTS to identify gynecologic anti-cancer compounds using libraries of approved drugs and bioactive compounds (AID 1345084); further: nearly all actives have a fitted effect of over 55% in size
Settings: Gynecologic cancer cell panel viability, ATPlite luminescence, 48 h; series mostly up to 57.5 µM
Results filed as inconclusive are left out. Calls of active or inactive are those of the source. Calls follow the shape of the dose curve; as a rule, active = well fitted cell-killing curve with a large enough effect; inconclusive = small, poorly fitted or top-dose-only effect, or effect the other way; inactive = flat fitted curve, though single readings scatter.
Could you please pick one outcome from this set? active, inactive

# outcome recorded in this test, key = CS(=O)(=O)c1ccc(-c2cn3ccccc3n2)cc1
active

Which outcome was entered for the molecule COc1ccc(-c2c(C)c(C(=O)NN3CCCCC3)nn2-c2ccc(Cl)cc2Cl)cc1 in this test?
inactive

Fill in: this test's call for Cc1cc(CN)cc(C)c1NC(=O)c1ccc(-c2cc(Cl)ccc2Cl)o1 is ___
inactive

Please state the recorded outcome for this molecule: c1ccc(Cn2c(-c3ccc(OCC(C4CCNCC4)n4c(-c5ccccc5)nc5ccccc54)cc3)nc3ccccc32)cc1 (centres undefined)
inactive

What classification did CCC(C)n1cc(C)c2c(C(=O)NCc3c(C)cc(C)[nH]c3=O)cc(-c3ccc(N4CCNCC4)nc3)cc21 (centres undefined) end up with in this test?
inactive

Check the results log: what was the call for N#CCC(C1CCCC1)n1cc(-c2ncnc3[nH]ccc23)cn1 (centres undefined) ?
inactive

// return assay outcome for C=C1C(=O)O[C@H]2[C@H]1[C@@H](OC(=O)/C(C)=C\C)C[C@]1(C)O[C@@H]1[C@H]1O[C@H]1C(=C)[C@H]2O
inactive

Record lookup: outcome of this test for CCOc1ccc(-c2nc(-c3cccc4c3CCC4NCCO)no2)cc1OCC (centres undefined) ?
inactive

Per the records of this test, what outcome belongs to COc1ccc(C2(CNC(=O)[C@](C)(Cc3c[nH]c4ccccc34)NC(=O)Nc3ccc([N+](=O)[O-])cc3)CCCCC2)nc1 ?
inactive

###

Assay: qHTS Assay for Lipid Storage Modulators (AID 1519)
Settings: Drosophila S3 cells, BODIPY lipid droplet/cell ratio, laser cytometry; measured here: cell count channel max response; cells loaded with oleic acid
Inconclusive results are not listed. Residues, ends and D or L forms follow the SMILES beside them.
For each entry below, report its max response value.
Numbers only, in %.

For orientation, consider the following solved cases.
{"compound": "CC(=O)N1CCN(C)CC1", "measuredMetric": "max response", "experimentalResult": -2.52}
{"compound": "Cc1ncc2c(c1O)COP(=O)(O)OC2", "measuredMetric": "max response", "experimentalResult": -3.73}
{"compound": "CCOc1nc2cccc(C(=O)OC(C)OC(=O)OC3CCCCC3)c2n1Cc1ccc(-c2ccccc2-c2nn[nH]n2)cc1 (stereo unspecified)", "measuredMetric": "max response", "experimentalResult": -28.3}

Each compound below has a reported value. Please supply its max response.
1. CC(C)=CCC/C(C)=C/CC/C(C)=C/CC/C(C)=C/CO
2. NC(N)=Nc1ccc(Cl)cc1
3. N[C@@H](C(=O)O)[C@H](CC(=O)O)c1ccc(Cl)cc1
4. CC(C)SC(=N)N
5. CSc1nc(N)c2ncn([C@H]3O[C@H](COP(=O)(O)OP(=O)(O)OP(=O)(O)O)[C@@H](O)[C@@H]3O)c2n1
6. O=C(O)Cc1cc2ccccc2nc1C(=O)O
7. C[C@@H](CCc1ccc(O)cc1)NCCc1ccc(O)c(O)c1

9.56
-0.36
-14.9
1.11
-2.91
1.68
1.22

// max response lookup, key: CC(=O)NCC(=O)N[C@H](CCC(=O)O)C(=O)O (HELM PEPTIDE1{[ac].G.[dE]}$$$$V2.0)
6.18

Data provenance is PubChem BioAssay (NCATS).
